Test system: Escherichia coli TOP10
Test: shrunken log2 fold change of peptide-encoding DNA abundance (4.5 h post-induction vs induction); higher = less antimicrobial activity (less host growth inhibition)
Conditions: time post-induction: 4.5 h; library: site-saturation at positions 5, 18, 19, 20
Decide using shrunken log2 fold change: a value greater than or equal to -0.08 is True, a smaller one is False.

Would you please look over these solved cases?
[[record]]
seq_text = "RRIRFRPPRLPRPRPRPLVVPRP"
cat = "False"

[[record]]
seq_text = "RRIRSRPPRLPRPRPRPCTWPRP"
cat = "False"

[[record]]
seq_text = "RRIRGRPPRLPRPRPRPTVPPRP"
cat = "True"

[[record]]
seq_text = "RRIRLRPPRLPRPRPRPNKSPRP"
cat = "False"

[[record]]
seq_text = "RRIRKRPPRLPRPRPRPTNQPRP"
cat = "True"


With those in mind, consider the next sequence.
Req: Given the entry "RRIRQRPPRLPRPRPRPMRAPRP" , answer whether its shrunken log2 fold change meets or surpasses -0.08.
Resp: True

###

Tested on: Escherichia coli TOP10
Test: shrunken log2 fold change of peptide-encoding DNA abundance (4.5 h post-induction vs induction); higher = less antimicrobial activity (less host growth inhibition)
Conditions: time post-induction: 4.5 h; library: site-saturation at positions 5, 18, 19, 20
The sequences listed here are annotated with their shrunken log2 fold change.

Use these answered entries as a reference point.
[[record]]
seq_text = "RRIRGRPPRLPRPRPRPRWDPRP"
data_value = 0.696

[[record]]
seq_text = "RRIRWRPPRLPRPRPRPNFPPRP"
data_value = 0.0284

[[record]]
seq_text = "RRIRLRPPRLPRPRPRPTYKPRP"
data_value = -0.244

[[record]]
seq_text = "RRIRHRPPRLPRPRPRPASWPRP"
data_value = 0.305

[[record]]
seq_text = "RRIRTRPPRLPRPRPRPKGSPRP"
data_value = -0.0414

[[record]]
seq_text = "RRIRNRPPRLPRPRPRPPRAPRP"
data_value = 0.658

[[record]]
seq_text = "RRIRQRPPRLPRPRPRPESPPRP"
data_value = 0.0606

[[record]]
seq_text = "RRIRSRPPRLPRPRPRPYIEPRP"
data_value = -0.183


Field shrunken log2 fold change (system: Escherichia coli TOP10) for entry "RRIRGRPPRLPRPRPRPFDLPRP" = -0.24

Field shrunken log2 fold change (system: Escherichia coli TOP10) for entry "RRIRRRPPRLPRPRPRPHHKPRP" = -0.0355

Field shrunken log2 fold change (system: Escherichia coli TOP10) for entry "RRIRDRPPRLPRPRPRPWYDPRP" = -0.6

Field shrunken log2 fold change (system: Escherichia coli TOP10) for entry "RRIRNRPPRLPRPRPRPKKCPRP" = -0.209

Field shrunken log2 fold change (system: Escherichia coli TOP10) for entry "RRIRSRPPRLPRPRPRPNWLPRP" = 0.18

Field shrunken log2 fold change (system: Escherichia coli TOP10) for entry "RRIRARPPRLPRPRPRPQDWPRP" = 0.556

Field shrunken log2 fold change (system: Escherichia coli TOP10) for entry "RRIRCRPPRLPRPRPRPVECPRP" = -0.142

Field shrunken log2 fold change (system: Escherichia coli TOP10) for entry "RRIRSRPPRLPRPRPRPHKRPRP" = 0.0245

Field shrunken log2 fold change (system: Escherichia coli TOP10) for entry "RRIRHRPPRLPRPRPRPDCWPRP" = 0.0871

###

Tested on: Escherichia coli TOP10
Assay: shrunken log2 fold change of peptide-encoding DNA abundance (4.5 h post-induction vs induction); higher = less antimicrobial activity (less host growth inhibition)
Conditions: time post-induction: 4.5 h; library: site-saturation at positions 5, 18, 19, 20
The sequences listed here are annotated with their shrunken log2 fold change.
Number, no unit, nothing else.

[[record]]
seq_text = "RRIRERPPRLPRPRPRPRNMPRP"
assayed_system = "Escherichia coli TOP10"
attribute_measured = "shrunken log2 fold change"
data_value = -0.228

[[record]]
seq_text = "RRIRCRPPRLPRPRPRPFKLPRP"
assayed_system = "Escherichia coli TOP10"
attribute_measured = "shrunken log2 fold change"
data_value = -0.62

[[record]]
seq_text = "RRIRARPPRLPRPRPRPREVPRP"
assayed_system = "Escherichia coli TOP10"
attribute_measured = "shrunken log2 fold change"
data_value = 0.738

[[record]]
seq_text = "RRIRQRPPRLPRPRPRPASPPRP"
assayed_system = "Escherichia coli TOP10"
attribute_measured = "shrunken log2 fold change"
data_value = -0.0456

[[record]]
seq_text = "RRIRKRPPRLPRPRPRPYKPPRP"
assayed_system = "Escherichia coli TOP10"
attribute_measured = "shrunken log2 fold change"
data_value = -0.0134

[[record]]
seq_text = "RRIRWRPPRLPRPRPRPVSDPRP"
assayed_system = "Escherichia coli TOP10"
attribute_measured = "shrunken log2 fold change"
data_value = 0.191

[[record]]
seq_text = "RRIRFRPPRLPRPRPRPFCCPRP"
assayed_system = "Escherichia coli TOP10"
attribute_measured = "shrunken log2 fold change"
data_value = -0.225

[[record]]
seq_text = "RRIRMRPPRLPRPRPRPNNAPRP"
assayed_system = "Escherichia coli TOP10"
attribute_measured = "shrunken log2 fold change"
data_value = -0.0978


Record "RRIRSRPPRLPRPRPRPTYTPRP" . Reported shrunken log2 fold change: -0.24

Record "RRIRFRPPRLPRPRPRPTARPRP" . Reported shrunken log2 fold change: 0.336

Record "RRIRRRPPRLPRPRPRPPCYPRP" . Reported shrunken log2 fold change: 0.473

Record "RRIRKRPPRLPRPRPRPNIFPRP" . Reported shrunken log2 fold change: -0.021

Record "RRIRGRPPRLPRPRPRPLDDPRP" . Reported shrunken log2 fold change: 1.09

Record "RRIRSRPPRLPRPRPRPQHAPRP" . Reported shrunken log2 fold change: -0.153

Record "RRIRKRPPRLPRPRPRPAMAPRP" . Reported shrunken log2 fold change: 0.664

Record "RRIRMRPPRLPRPRPRPVRPPRP" . Reported shrunken log2 fold change: 1.76

Record "RRIRVRPPRLPRPRPRPEREPRP" . Reported shrunken log2 fold change: 0.586

Record "RRIRTRPPRLPRPRPRPDYYPRP" . Reported shrunken log2 fold change: -0.356

Record "RRIRYRPPRLPRPRPRPWQPPRP" . Reported shrunken log2 fold change: -0.274

Record "RRIRTRPPRLPRPRPRPVVQPRP" . Reported shrunken log2 fold change: -0.062

Record "RRIRPRPPRLPRPRPRPFPTPRP" . Reported shrunken log2 fold change: -0.189

Record "RRIRTRPPRLPRPRPRPRCCPRP" . Reported shrunken log2 fold change: 0.0734

Record "RRIRDRPPRLPRPRPRPNIAPRP" . Reported shrunken log2 fold change: 0.169

###

System: Escherichia coli TOP10
Assay: shrunken log2 fold change of peptide-encoding DNA abundance (4.5 h post-induction vs induction); higher = less antimicrobial activity (less host growth inhibition)
Conditions: time post-induction: 4.5 h; library: site-saturation at positions 5, 18, 19, 20
The sequences listed here are annotated with their shrunken log2 fold change.
Number, no unit, nothing else.

[[record]]
seq_text = "RRIRQRPPRLPRPRPRPCCNPRP"
data_value = -0.0838


Record "RRIRHRPPRLPRPRPRPIKDPRP" . Reported shrunken log2 fold change: -0.299

Record "RRIRPRPPRLPRPRPRPQGLPRP" . Reported shrunken log2 fold change: -0.122

Record "RRIRHRPPRLPRPRPRPFAAPRP" . Reported shrunken log2 fold change: -0.0135

###

The sequences listed here are annotated with their shrunken log2 fold change.
System: Escherichia coli TOP10;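 further: peptides expressed intracellularly from a pBAD plasmid library in pooled LB shake-flask culture, induced with 0.3% L-arabinose, DNA abundance read by NGS, three biological replicates, DESeq2 with apeglm shrinkage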
Experiment: shrunken log2 fold change of peptide-encoding DNA abundance (4.5 h post-induction vs induction); higher = less antimicrobial activity (less host growth inhibition)
Conditions: time post-induction: 4.5 h; library: site-saturation at positions 5, 18, 19, 20
Number, no unit, nothing else.

Use these answered entries as a reference point.
[[record]]
seq_text = "RRIRNRPPRLPRPRPRPMASPRP"
data_value = -0.0269

[[record]]
seq_text = "RRIRRRPPRLPRPRPRPIQVPRP"
data_value = -0.0268

[[record]]
seq_text = "RRIRWRPPRLPRPRPRPRDNPRP"
data_value = 0.0559

[[record]]
seq_text = "RRIRWRPPRLPRPRPRPCHLPRP"
data_value = -0.211

[[record]]
seq_text = "RRIRHRPPRLPRPRPRPNVNPRP"
data_value = -0.555

[[record]]
seq_text = "RRIRVRPPRLPRPRPRPRIGPRP"
data_value = 0.131

[[record]]
seq_text = "RRIRSRPPRLPRPRPRPMMVPRP"
data_value = -0.203

[[record]]
seq_text = "RRIRDRPPRLPRPRPRPNDRPRP"
data_value = -0.12


Field shrunken log2 fold change (system: Escherichia coli TOP10) for entry "RRIRWRPPRLPRPRPRPTETPRP" = 0.0028

Field shrunken log2 fold change (system: Escherichia coli TOP10) for entry "RRIRTRPPRLPRPRPRPAVCPRP" = 0.712

Field shrunken log2 fold change (system: Escherichia coli TOP10) for entry "RRIRFRPPRLPRPRPRPPGFPRP" = 0.268

Field shrunken log2 fold change (system: Escherichia coli TOP10) for entry "RRIRNRPPRLPRPRPRPYRPPRP" = -0.379

Field shrunken log2 fold change (system: Escherichia coli TOP10) for entry "RRIRKRPPRLPRPRPRPNLSPRP" = -0.0224

Field shrunken log2 fold change (system: Escherichia coli TOP10) for entry "RRIRFRPPRLPRPRPRPAMEPRP" = 0.0126

Field shrunken log2 fold change (system: Escherichia coli TOP10) for entry "RRIRMRPPRLPRPRPRPTAPPRP" = 0.905

Field shrunken log2 fold change (system: Escherichia coli TOP10) for entry "RRIRERPPRLPRPRPRPEQLPRP" = 0.00434
